TARGET SYSTEM: human SCD1 (Homo sapiens, UniProt O00767)
Construct: expressed in transfected cells; host or cells: yeast strain with OLE1 deleted, plasmid-borne human SCD1 (selected in SD-Ura)
Sequence (O00767 whole entry): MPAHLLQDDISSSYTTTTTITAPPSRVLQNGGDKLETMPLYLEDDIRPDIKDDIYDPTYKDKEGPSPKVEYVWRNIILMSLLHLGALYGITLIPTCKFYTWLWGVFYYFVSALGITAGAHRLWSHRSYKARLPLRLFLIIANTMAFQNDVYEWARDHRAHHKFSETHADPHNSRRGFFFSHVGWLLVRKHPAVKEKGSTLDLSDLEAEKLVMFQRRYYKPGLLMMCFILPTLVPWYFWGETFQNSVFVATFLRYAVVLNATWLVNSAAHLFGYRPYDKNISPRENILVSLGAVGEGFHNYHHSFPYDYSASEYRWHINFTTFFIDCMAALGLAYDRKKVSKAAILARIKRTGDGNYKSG
ASSAY REMARKS: Growth inhibition of yeast strain expressing human SCD1 as sole desaturase (OLE1 deleted), OD600 readout
Assay type: cell-based
CONDITION NOTES: yeast strain expressing human SCD1 as sole desaturase; growth (OD600) after 40 h at 30° C.; read-out: SCD1 IC50
pIC50: −log10 of the molar value.
Would you please tag the item TRUE when its pIC50 is 6 or above, and FALSE when it is below?

Say whether "Cn1nc(C(=O)Nc2ccc(Cc3cc(F)ccc3F)cn2)ccc1=O" shows pIC50 of 6 or more.
FALSE

# repeat for "Cn1nccc(NC(=O)c2ccc(Cc3cccc(F)c3)cn2)c1=O"
TRUE

# repeat for "CCn1cc(C(=O)Nc2ccc(Cc3ccc(F)c(F)c3)cn2)ccc1=O"
FALSE

# repeat for "CN1N=C(C(=O)Nc2ccc(Cc3cncc(C(F)(F)F)c3)cn2)CCC1=O"
FALSE

# repeat for "N#Cc1ccc(NC(=O)c2ccc(Cc3cc(F)cc(F)c3)cn2)cn1"
TRUE

# repeat for "O=C(Nc1ccc(Cc2cccc(F)c2)nn1)c1ccc2nccn2n1"
FALSE

# repeat for "Cn1cc(C(=O)Nc2ccc(COc3ccccc3)cn2)ccc1=O"
FALSE

# repeat for "CN1N=C(C(=O)Nc2ccc(CC3CCCCC3)cn2)CCC1=O"
FALSE

# repeat for "O=C(Nc1ccc(Cc2cccc(Cl)c2)cn1)c1cc2ncncc2s1"
FALSE

----------
Exercise: state measured IC50 for each of the compounds provided.
TARGET SYSTEM: human SCD1 (Homo sapiens)
Construct: expressed in transfected cells; host or cells: yeast strain with OLE1 deleted, plasmid-borne human SCD1 (selected in SD-Ura)
ASSAY REMARKS: Growth inhibition of yeast strain expressing human SCD1 as sole desaturase (OLE1 deleted), OD600 readout
Type: cell-based
CONDITION NOTES: yeast strain expressing human SCD1 as sole desaturase; growth (OD600) after 40 h at 30° C.; read-out: SCD1 IC50
Supply the numeric figure in µM, leaving out any unit text.

I am curious: what IC50 value has been reported for "Cn1nc(C(=O)Nc2ccc(Cc3cccc(F)c3)nn2)ccc1=O" ?
15.9

# repeat for "N#Cc1ccc(C(=O)Nc2ccc(Cc3ccc(F)c(F)c3)cn2)cn1"
6.6

# repeat for "O=C(Nc1ccc(Cc2cccc(F)c2)cn1)c1cc2ncncc2s1"
0.74

# repeat for "Cn1cc(C(=O)Nc2ccc(Cc3cc(F)cc(F)c3)cn2)n(C)c1=O"
0.042

# repeat for "O=C(Nc1ccc(Cc2cccc(F)c2)cn1)c1cc(CO)ccn1"
0.01

# repeat for CC(O)c1ccc(C(=O)Nc2ccc(Cc3cccc(Cl)c3)cn2)cn1 (stereo not shown)
1.37

# repeat for "O=C(Nc1ccc(Cc2cccc(Cl)c2)cn1)c1ccc(CO)nn1"
0.01

# repeat for "Cn1nc(NC(=O)c2ccc(Cc3cccc(Cl)c3)cn2)ccc1=O"
0.11

# repeat for "CCn1cc(C(=O)Nc2ccc(Cc3cccc(F)c3)cn2)cn1"
0.54

# repeat for "Cn1cc(C(=O)Nc2ccc(COc3cccc(Cl)c3)nn2)ccc1=O"
5.37

# repeat for "CN1N=C(C(=O)Nc2cnc(Cc3cccc(F)c3)s2)CCC1=O"
17.6

# repeat for "Cn1cc(C(=O)Nc2ccc(Cc3ccc(F)cc3F)cn2)ccc1=O"
1.6

# repeat for "CC(=O)c1ccc(C(=O)Nc2ccc(Cc3ccc(F)c(F)c3)cn2)nn1"
0.96

# repeat for "Cc1ccc(C(=O)Nc2ccc(Cc3cccc(F)c3)cn2)nn1"
1.71

# repeat for "CN1N=C(C(=O)Nc2ncc(Cc3ccccc3Cl)s2)CCC1=O"
2.88

# repeat for "O=C(Nc1ccc(Cc2cccc(Cl)c2)cn1)c1ccc(CCO)nc1"
0.02

# repeat for "Cc1nnc(C(=O)Nc2ccc(Cc3cccc(Cl)c3)cn2)s1"
0.16

# repeat for "N#Cc1cc(F)cc(Cc2ccc(NC(=O)c3cncc(CO)c3)nc2)c1"
0.19

# repeat for "Cn1cc(NC(=O)c2ncc(Cc3ccc(F)c(F)c3)cc2F)ccc1=O"
4.8

# repeat for "Cc1cc(C(=O)Nc2ccc(Cc3cc(F)cc(F)c3)cn2)cnc1C#N"
0.522

# repeat for "Cc1cnc(C(=O)Nc2ccc(Cc3ccc(F)c(Cl)c3)cn2)cn1"
0.55

# repeat for "O=C(Nc1ccc(COc2ccc(F)c(Cl)c2)cn1)c1ccc(=O)n(C2CC2)c1"
25.8

# repeat for "COc1cc(Cc2ccc(NC(=O)c3ccc(=O)n(C)c3)nc2)ccn1"
3.4

# repeat for "Cn1nc(C(=O)Nc2ccc(Cc3cc(F)c(F)c(F)c3)cn2)ccc1=O"
0.19
